For each of the compounds below, state its Ki.
Molecular target: human NEP (Homo sapiens, UniProt P08473)
Construct: purchased R&D Systems, Minneapolis, Minn; 1182-ZN
Sequence (P08473 whole entry): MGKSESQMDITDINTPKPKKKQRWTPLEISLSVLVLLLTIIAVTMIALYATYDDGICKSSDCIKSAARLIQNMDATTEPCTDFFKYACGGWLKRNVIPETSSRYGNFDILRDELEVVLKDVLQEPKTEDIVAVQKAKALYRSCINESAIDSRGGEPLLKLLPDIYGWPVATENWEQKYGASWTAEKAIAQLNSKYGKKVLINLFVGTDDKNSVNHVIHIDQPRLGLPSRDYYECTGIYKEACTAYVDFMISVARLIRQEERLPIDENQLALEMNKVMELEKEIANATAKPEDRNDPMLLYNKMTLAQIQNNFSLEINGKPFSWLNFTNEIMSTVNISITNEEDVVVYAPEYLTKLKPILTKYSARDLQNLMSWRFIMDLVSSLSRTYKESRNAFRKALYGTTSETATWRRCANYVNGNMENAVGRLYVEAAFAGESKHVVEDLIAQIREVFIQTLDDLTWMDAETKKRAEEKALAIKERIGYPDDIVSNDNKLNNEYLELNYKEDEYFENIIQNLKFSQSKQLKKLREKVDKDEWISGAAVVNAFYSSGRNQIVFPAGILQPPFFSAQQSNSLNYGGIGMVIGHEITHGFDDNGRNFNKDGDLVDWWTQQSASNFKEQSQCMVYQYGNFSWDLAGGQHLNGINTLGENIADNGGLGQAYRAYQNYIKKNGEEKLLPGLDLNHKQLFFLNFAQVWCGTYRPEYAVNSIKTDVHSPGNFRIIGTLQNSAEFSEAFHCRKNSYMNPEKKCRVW
Assay: In vitro enzyme inhibition assay at human NEP (fluorogenic peptide substrate)
Format: biochemical
Settings: recombinant human NEP; substrate Mca-D-Arg-Arg-Leu-Dap-(Dnp)-OH 10 μM; 37° C.; values given as ranges; read-out: pKi values at human NEP (converted)

In: Which measured Ki value corresponds to `CC(C)CN(C)C(=O)c1cc(C(=O)N[C@H](Cc2ccccc2C(F)(F)F)[C@@H](O)C(=O)O)n[nH]1` ?
Out: 12.6 to 100 nM

In: Recorded Ki for `O=C(N[C@H](Cc1ccccc1Cl)[C@@H](O)C(=O)O)c1cc(C(=O)O)n(CCc2ccccc2)n1` , please?
Out: 12.6 to 100 nM

In: Fill in the blank: the reported Ki of `O=C(N[C@H](Cc1ccccc1)[C@@H](O)C(=O)O)c1cc(C(=O)O)n(Cc2cccnc2)n1` is ____.
Out: 12.6 to 100 nM

In: Requested read-out: Ki. Entry: `O=C(N[C@H](Cc1ccccc1Cl)[C@@H](O)C(=O)O)c1cc(C(=O)O)n(Cc2ccc(Cl)c(SC(F)(F)F)c2)n1`
Out: 12.6 to 100 nM

In: For `O=C(N[C@H](Cc1ccccc1C(F)(F)F)[C@@H](O)C(=O)O)c1cc(C(=O)N2CCC(O)CC2)[nH]n1` , what is its reported Ki?
Out: 12.6 to 100 nM

In: What does the data say about its Ki? Entry: `CN(C)C(=O)c1cc(C(=O)N[C@H](Cc2ccccc2C(F)(F)F)[C@@H](O)C(=O)O)n[nH]1`
Out: 1.26 to 10 nM

In: Using the record for `O=C(N[C@H](Cc1ccccc1Cl)[C@@H](O)C(=O)O)c1cc(O)n(Cc2ccc(Cl)cc2F)n1` , report its Ki.
Out: 12.6 to 100 nM

In: Quick one: Ki of `O=C(N[C@H](Cc1ccccc1Cl)[C@@H](O)C(=O)O)c1cc(C(=O)O)n(Cc2ccc(Cl)c(C(F)(F)F)c2)n1` ?
Out: 12.6 to 100 nM

In: Field request: Ki | item: `COc1ccc(Cn2nc(C(=O)N[C@H](Cc3ccccc3)[C@@H](O)C(=O)O)cc2C2CC2)cc1`
Out: 1.26 to 10 nM

In: Recorded Ki of `Cc1ccc(Cn2nc(C(=O)N[C@H](Cc3ccccc3Cl)[C@@H](O)C(=O)O)cc2C(=O)O)cc1` , please.
Out: 1.26 to 10 nM

In: Quick one: Ki of `O=C(N[C@H](Cc1ccccc1)[C@@H](O)C(=O)O)c1cc(C(=O)O)n(Cc2c(F)cc(Cl)cc2F)n1` ?
Out: 1.26 to 10 nM

In: Which Ki reading was recorded for the compound `CSc1ccc(Cn2nc(C(=O)N[C@H](Cc3ccccc3)[C@@H](O)C(=O)O)cc2C2CC2)cc1` ?
Out: 12.6 to 100 nM

---

Target: human NEP (Homo sapiens)
Construct: purchased R&D Systems, Minneapolis, Minn; 1182-ZN
Assay: In vitro enzyme inhibition assay at human NEP (fluorogenic peptide substrate)
Format: biochemical
Settings: recombinant human NEP; substrate Mca-D-Arg-Arg-Leu-Dap-(Dnp)-OH 10 μM; 37° C.; values given as ranges; read-out: pKi values at human NEP (converted)
Field: Ki. Provide a value for each of the molecules that follow.

In: Form field: Ki recorded for `O=C(N[C@H](Cc1ccccc1)[C@@H](O)C(=O)O)c1cc(C(=O)O)n(Cc2ccc(F)cc2)n1` with human NEP (Homo sapiens) (enter value)
Out: 1.26 to 10 nM

In: Lab request: please report Ki under test system human NEP (Homo sapiens) for `O=C(N[C@H](Cc1ccccc1C(F)(F)F)[C@@H](O)C(=O)O)c1cc(C(=O)O)n(Cc2ccc(F)cc2)n1`
Out: 1.26 to 10 nM

In: Lab note: need Ki with human NEP (Homo sapiens) for entry `O=C(N[C@H](Cc1ccccc1Cl)[C@@H](O)C(=O)O)c1cc(C(=O)O)n(Cc2c(F)cc(Cl)cc2F)n1` , please look it up.
Out: 1.26 to 10 nM
